- System: EGFR (human), P00533 [752-759 del]
- Sequence (P00533 whole entry, looked up, stated change not applied): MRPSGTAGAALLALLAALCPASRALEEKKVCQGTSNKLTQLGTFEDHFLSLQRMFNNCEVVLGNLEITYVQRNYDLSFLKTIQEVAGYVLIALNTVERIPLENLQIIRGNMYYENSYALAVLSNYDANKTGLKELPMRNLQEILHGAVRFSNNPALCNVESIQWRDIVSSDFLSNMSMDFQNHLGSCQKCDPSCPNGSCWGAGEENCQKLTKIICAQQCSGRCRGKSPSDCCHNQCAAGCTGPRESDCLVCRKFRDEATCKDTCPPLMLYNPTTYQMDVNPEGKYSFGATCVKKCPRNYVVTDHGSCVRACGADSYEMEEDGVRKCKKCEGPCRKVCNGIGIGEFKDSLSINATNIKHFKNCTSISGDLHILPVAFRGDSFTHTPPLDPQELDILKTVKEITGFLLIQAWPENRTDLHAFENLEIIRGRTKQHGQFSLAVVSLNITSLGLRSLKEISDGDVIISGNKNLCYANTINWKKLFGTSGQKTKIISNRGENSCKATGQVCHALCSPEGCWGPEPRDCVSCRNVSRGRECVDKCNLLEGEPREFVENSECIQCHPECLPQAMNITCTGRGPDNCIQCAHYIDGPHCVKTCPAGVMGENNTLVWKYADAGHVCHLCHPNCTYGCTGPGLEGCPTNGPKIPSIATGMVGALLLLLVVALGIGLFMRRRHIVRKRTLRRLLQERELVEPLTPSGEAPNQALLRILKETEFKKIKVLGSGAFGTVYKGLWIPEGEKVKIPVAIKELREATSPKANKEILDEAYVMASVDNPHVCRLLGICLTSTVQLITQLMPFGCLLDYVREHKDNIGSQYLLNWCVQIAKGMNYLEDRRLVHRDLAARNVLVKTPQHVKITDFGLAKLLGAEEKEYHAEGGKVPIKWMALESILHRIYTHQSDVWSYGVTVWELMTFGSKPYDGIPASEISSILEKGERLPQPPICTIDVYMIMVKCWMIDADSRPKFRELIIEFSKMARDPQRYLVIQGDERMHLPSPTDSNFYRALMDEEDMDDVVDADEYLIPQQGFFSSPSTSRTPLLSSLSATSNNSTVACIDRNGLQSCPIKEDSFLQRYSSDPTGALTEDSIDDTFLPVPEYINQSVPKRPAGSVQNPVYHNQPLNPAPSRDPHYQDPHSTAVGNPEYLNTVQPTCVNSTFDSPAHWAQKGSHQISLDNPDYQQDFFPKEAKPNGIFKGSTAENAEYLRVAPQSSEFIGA
- method_description: KINOMEscan competition binding
- condition_notes: compound 10.0 µM
value_type: kinase still bound, per cent of control (%)

1. CCN1CCN(Cc2ccc(NC(=O)c3ccc(C)c(/C=C/c4cnc(Nc5cc(N6CCNCC6)nc(C)n5)cn4)c3)cc2C(F)(F)F)CC1 ... 6.2
2. CCOc1cc(N2CCC(N3CCCCC3)CC2)ccc1Nc1nc(Nc2ccccc2S(=O)(=O)C(C)C)c2cn[nH]c2n1 ... 49
3. COc1cc(N2CCC(N3CCN(C)CC3)CC2)ccc1Nc1ncc(Cl)c(Nc2ccccc2S(=O)(=O)C(C)C)n1 ... 1.4
4. CCN1CCN(Cc2ccc(NC(=O)c3ccc(C)c(Oc4ccnc5[nH]ccc45)c3)cc2C(F)(F)F)CC1 ... 4.6

====

- test_system: STK10 (human)
- method_description: KINOMEscan competition binding
- condition_notes: compound 10.0 µM
kinase still bound, per cent of control: recorded values
value_type: kinase still bound, per cent of control (%)

1) CCN1CCN(Cc2ccc(NC(=O)c3ccc(C)c(/C=C/c4cnc(Nc5cc(N6CCNCC6)nc(C)n5)cn4)c3)cc2C(F)(F)F)CC1 ... 0
2) CCOc1cc(N2CCC(N3CCCCC3)CC2)ccc1Nc1nc(Nc2ccccc2S(=O)(=O)C(C)C)c2cn[nH]c2n1 ... 100
3) CCN1CCN(Cc2ccc(NC(=O)c3ccc(C)c(Oc4ccnc5[nH]ccc45)c3)cc2C(F)(F)F)CC1 ... 0
4) COc1cc(N2CCC(N3CCN(C)CC3)CC2)ccc1Nc1ncc(Cl)c(Nc2ccccc2S(=O)(=O)C(C)C)n1 ... 0

====

- test_system: TNNI3K (human)
- method_description: KINOMEscan competition binding
- condition_notes: compound 10.0 µM
kinase still bound, per cent of control: recorded values
value_type: kinase still bound, per cent of control (%)

1. COc1cc(N2CCC(N3CCN(C)CC3)CC2)ccc1Nc1ncc(Cl)c(Nc2ccccc2S(=O)(=O)C(C)C)n1 ... 15
2. CCN1CCN(Cc2ccc(NC(=O)c3ccc(C)c(/C=C/c4cnc(Nc5cc(N6CCNCC6)nc(C)n5)cn4)c3)cc2C(F)(F)F)CC1 ... 12
3. CCOc1cc(N2CCC(N3CCCCC3)CC2)ccc1Nc1nc(Nc2ccccc2S(=O)(=O)C(C)C)c2cn[nH]c2n1 ... 100
4. CCN1CCN(Cc2ccc(NC(=O)c3ccc(C)c(Oc4ccnc5[nH]ccc45)c3)cc2C(F)(F)F)CC1 ... 4.8

====

kinase still bound, per cent of control: recorded values
- test_system: PTK6 (human) (UniProt Q13882)
- method_description: KINOMEscan competition binding
- condition_notes: compound 10.0 µM
value_type: kinase still bound, per cent of control (%)

1. CCN1CCN(Cc2ccc(NC(=O)c3ccc(C)c(Oc4ccnc5[nH]ccc45)c3)cc2C(F)(F)F)CC1 ... 28
2. COc1cc(N2CCC(N3CCN(C)CC3)CC2)ccc1Nc1ncc(Cl)c(Nc2ccccc2S(=O)(=O)C(C)C)n1 ... 0.15
3. CCN1CCN(Cc2ccc(NC(=O)c3ccc(C)c(/C=C/c4cnc(Nc5cc(N6CCNCC6)nc(C)n5)cn4)c3)cc2C(F)(F)F)CC1 ... 91
4. CCOc1cc(N2CCC(N3CCCCC3)CC2)ccc1Nc1nc(Nc2ccccc2S(=O)(=O)C(C)C)c2cn[nH]c2n1 ... 10

====

- test_system: CIT (human) (UniProt O14578)
- Sequence (O14578 whole entry, looked up): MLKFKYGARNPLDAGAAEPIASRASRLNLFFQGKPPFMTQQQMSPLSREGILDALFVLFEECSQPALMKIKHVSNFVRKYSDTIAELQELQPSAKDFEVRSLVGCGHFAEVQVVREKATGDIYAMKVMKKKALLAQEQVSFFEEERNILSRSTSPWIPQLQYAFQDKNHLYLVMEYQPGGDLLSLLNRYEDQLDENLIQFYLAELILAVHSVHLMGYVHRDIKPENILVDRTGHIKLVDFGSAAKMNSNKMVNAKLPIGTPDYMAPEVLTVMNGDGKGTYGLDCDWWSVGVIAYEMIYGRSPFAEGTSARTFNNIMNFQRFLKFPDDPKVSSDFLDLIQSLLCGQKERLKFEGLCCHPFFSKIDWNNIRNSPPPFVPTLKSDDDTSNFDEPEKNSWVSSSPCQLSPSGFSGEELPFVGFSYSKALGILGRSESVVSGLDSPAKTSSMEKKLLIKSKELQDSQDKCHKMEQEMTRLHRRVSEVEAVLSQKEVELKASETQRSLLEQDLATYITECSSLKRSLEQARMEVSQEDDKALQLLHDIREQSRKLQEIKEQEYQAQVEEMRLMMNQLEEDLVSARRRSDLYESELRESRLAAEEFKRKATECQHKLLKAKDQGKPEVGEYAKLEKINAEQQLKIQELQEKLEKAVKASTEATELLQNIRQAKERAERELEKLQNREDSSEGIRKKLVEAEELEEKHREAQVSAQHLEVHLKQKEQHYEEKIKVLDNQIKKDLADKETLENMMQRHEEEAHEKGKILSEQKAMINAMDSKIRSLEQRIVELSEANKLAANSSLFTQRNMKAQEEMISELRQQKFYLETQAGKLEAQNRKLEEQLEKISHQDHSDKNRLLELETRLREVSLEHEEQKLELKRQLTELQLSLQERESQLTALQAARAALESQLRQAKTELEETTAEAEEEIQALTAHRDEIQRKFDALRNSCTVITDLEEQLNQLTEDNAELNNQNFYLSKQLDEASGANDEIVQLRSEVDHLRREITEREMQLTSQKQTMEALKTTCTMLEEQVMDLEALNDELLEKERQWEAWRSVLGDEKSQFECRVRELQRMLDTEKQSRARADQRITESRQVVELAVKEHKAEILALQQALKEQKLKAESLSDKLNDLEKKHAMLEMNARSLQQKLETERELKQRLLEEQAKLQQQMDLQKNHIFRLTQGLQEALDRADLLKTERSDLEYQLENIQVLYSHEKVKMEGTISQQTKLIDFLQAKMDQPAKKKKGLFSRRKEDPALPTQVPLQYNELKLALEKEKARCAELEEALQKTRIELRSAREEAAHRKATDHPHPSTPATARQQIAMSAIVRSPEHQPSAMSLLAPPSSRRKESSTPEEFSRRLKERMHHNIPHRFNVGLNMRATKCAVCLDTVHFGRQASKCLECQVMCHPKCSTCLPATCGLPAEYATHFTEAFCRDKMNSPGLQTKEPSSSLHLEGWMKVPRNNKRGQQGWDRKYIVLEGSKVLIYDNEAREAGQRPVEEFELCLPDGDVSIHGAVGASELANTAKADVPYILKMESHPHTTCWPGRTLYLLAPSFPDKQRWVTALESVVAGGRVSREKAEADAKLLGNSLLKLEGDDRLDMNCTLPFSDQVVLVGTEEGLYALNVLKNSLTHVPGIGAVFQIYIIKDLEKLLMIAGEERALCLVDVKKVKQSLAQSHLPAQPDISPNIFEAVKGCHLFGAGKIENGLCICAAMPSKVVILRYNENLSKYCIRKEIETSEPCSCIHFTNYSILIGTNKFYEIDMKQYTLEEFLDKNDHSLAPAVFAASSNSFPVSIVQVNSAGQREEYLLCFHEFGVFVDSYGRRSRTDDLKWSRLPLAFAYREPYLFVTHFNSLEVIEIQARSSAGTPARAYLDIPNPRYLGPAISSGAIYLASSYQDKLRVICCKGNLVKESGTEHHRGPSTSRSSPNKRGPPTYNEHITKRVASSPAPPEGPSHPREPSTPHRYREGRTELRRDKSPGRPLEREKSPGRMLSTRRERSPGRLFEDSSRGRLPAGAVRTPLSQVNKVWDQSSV
- method_description: KINOMEscan competition binding
- condition_notes: compound 10.0 µM
kinase still bound, per cent of control: recorded values
value_type: kinase still bound, per cent of control (%)

1) CCN1CCN(Cc2ccc(NC(=O)c3ccc(C)c(Oc4ccnc5[nH]ccc45)c3)cc2C(F)(F)F)CC1 ... 0.1
2) CCOc1cc(N2CCC(N3CCCCC3)CC2)ccc1Nc1nc(Nc2ccccc2S(=O)(=O)C(C)C)c2cn[nH]c2n1 ... 100
3) COc1cc(N2CCC(N3CCN(C)CC3)CC2)ccc1Nc1ncc(Cl)c(Nc2ccccc2S(=O)(=O)C(C)C)n1 ... 40
4) CCN1CCN(Cc2ccc(NC(=O)c3ccc(C)c(/C=C/c4cnc(Nc5cc(N6CCNCC6)nc(C)n5)cn4)c3)cc2C(F)(F)F)CC1 ... 0.2

====

- test_system: PDGFRB (human)
- method_description: KINOMEscan competition binding
- condition_notes: compound 10.0 µM
kinase still bound, per cent of control: recorded values
value_type: kinase still bound, per cent of control (%)

1) CCN1CCN(Cc2ccc(NC(=O)c3ccc(C)c(/C=C/c4cnc(Nc5cc(N6CCNCC6)nc(C)n5)cn4)c3)cc2C(F)(F)F)CC1 ... 0
2) CCOc1cc(N2CCC(N3CCCCC3)CC2)ccc1Nc1nc(Nc2ccccc2S(=O)(=O)C(C)C)c2cn[nH]c2n1 ... 69
3) COc1cc(N2CCC(N3CCN(C)CC3)CC2)ccc1Nc1ncc(Cl)c(Nc2ccccc2S(=O)(=O)C(C)C)n1 ... 0.25
4) CCN1CCN(Cc2ccc(NC(=O)c3ccc(C)c(Oc4ccnc5[nH]ccc45)c3)cc2C(F)(F)F)CC1 ... 0

====

kinase still bound, per cent of control: recorded values
- test_system: BLK (human) (UniProt P51451)
- method_description: KINOMEscan competition binding
- condition_notes: compound 10.0 µM
value_type: kinase still bound, per cent of control (%)

1) COc1cc(N2CCC(N3CCN(C)CC3)CC2)ccc1Nc1ncc(Cl)c(Nc2ccccc2S(=O)(=O)C(C)C)n1 ... 0.1
2) CCN1CCN(Cc2ccc(NC(=O)c3ccc(C)c(/C=C/c4cnc(Nc5cc(N6CCNCC6)nc(C)n5)cn4)c3)cc2C(F)(F)F)CC1 ... 0.1
3) CCN1CCN(Cc2ccc(NC(=O)c3ccc(C)c(Oc4ccnc5[nH]ccc45)c3)cc2C(F)(F)F)CC1 ... 0.45
4) CCOc1cc(N2CCC(N3CCCCC3)CC2)ccc1Nc1nc(Nc2ccccc2S(=O)(=O)C(C)C)c2cn[nH]c2n1 ... 100

====

- test_system: UniProt:Q9NRM7
- Sequence (Q9NRM7 whole entry, looked up): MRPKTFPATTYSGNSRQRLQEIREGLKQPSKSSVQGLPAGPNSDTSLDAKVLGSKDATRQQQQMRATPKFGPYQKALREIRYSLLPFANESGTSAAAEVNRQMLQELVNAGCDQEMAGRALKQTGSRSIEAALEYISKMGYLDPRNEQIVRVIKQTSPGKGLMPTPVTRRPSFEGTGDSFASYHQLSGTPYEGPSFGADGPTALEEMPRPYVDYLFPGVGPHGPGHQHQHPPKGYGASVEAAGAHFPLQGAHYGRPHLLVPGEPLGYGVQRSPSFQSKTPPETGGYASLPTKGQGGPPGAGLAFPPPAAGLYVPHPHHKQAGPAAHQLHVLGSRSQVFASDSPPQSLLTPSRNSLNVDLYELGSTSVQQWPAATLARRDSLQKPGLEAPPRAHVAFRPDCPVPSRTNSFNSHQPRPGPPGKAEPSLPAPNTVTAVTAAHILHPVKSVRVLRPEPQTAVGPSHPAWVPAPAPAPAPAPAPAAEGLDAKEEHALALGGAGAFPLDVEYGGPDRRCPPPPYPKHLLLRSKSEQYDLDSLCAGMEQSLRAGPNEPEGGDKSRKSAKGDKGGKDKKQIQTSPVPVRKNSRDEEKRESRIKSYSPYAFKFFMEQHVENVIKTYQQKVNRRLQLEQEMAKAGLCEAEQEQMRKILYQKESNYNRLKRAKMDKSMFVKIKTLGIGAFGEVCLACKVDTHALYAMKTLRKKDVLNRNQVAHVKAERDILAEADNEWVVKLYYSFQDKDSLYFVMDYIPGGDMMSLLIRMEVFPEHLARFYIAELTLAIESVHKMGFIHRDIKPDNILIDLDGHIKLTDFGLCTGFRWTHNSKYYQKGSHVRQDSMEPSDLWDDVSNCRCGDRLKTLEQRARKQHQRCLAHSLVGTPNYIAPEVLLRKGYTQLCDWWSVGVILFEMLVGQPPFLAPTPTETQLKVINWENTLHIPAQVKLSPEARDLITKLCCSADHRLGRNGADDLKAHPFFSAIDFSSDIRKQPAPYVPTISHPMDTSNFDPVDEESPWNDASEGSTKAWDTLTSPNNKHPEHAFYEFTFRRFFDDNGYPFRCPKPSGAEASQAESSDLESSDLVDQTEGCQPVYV
- method_description: KINOMEscan competition binding
- condition_notes: compound 10.0 µM
kinase still bound, per cent of control: recorded values
value_type: kinase still bound, per cent of control (%)

1. CCOc1cc(N2CCC(N3CCCCC3)CC2)ccc1Nc1nc(Nc2ccccc2S(=O)(=O)C(C)C)c2cn[nH]c2n1 ... 88
2. CCN1CCN(Cc2ccc(NC(=O)c3ccc(C)c(Oc4ccnc5[nH]ccc45)c3)cc2C(F)(F)F)CC1 ... 13
3. COc1cc(N2CCC(N3CCN(C)CC3)CC2)ccc1Nc1ncc(Cl)c(Nc2ccccc2S(=O)(=O)C(C)C)n1 ... 17
4. CCN1CCN(Cc2ccc(NC(=O)c3ccc(C)c(/C=C/c4cnc(Nc5cc(N6CCNCC6)nc(C)n5)cn4)c3)cc2C(F)(F)F)CC1 ... 36

====

- test_system: SRMS (human) (UniProt Q9H3Y6)
- Sequence (Q9H3Y6 whole entry, looked up): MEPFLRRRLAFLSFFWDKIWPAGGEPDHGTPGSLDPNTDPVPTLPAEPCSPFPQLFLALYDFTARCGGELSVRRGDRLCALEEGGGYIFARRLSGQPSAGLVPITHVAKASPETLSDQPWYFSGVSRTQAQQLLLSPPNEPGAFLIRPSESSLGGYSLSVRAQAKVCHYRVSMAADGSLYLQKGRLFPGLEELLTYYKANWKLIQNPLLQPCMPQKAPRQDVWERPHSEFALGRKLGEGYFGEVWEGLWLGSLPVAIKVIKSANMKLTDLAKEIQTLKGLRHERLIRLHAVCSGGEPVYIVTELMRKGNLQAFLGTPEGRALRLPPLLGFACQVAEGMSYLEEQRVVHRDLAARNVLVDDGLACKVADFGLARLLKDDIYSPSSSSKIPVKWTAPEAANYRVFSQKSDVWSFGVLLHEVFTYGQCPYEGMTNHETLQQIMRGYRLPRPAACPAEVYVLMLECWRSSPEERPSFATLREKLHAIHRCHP
- method_description: KINOMEscan competition binding
- condition_notes: compound 10.0 µM
value_type: kinase still bound, per cent of control (%)

1. COc1cc(N2CCC(N3CCN(C)CC3)CC2)ccc1Nc1ncc(Cl)c(Nc2ccccc2S(=O)(=O)C(C)C)n1 ... 0
2. CCN1CCN(Cc2ccc(NC(=O)c3ccc(C)c(/C=C/c4cnc(Nc5cc(N6CCNCC6)nc(C)n5)cn4)c3)cc2C(F)(F)F)CC1 ... 8.2
3. CCN1CCN(Cc2ccc(NC(=O)c3ccc(C)c(Oc4ccnc5[nH]ccc45)c3)cc2C(F)(F)F)CC1 ... 4.6
4. CCOc1cc(N2CCC(N3CCCCC3)CC2)ccc1Nc1nc(Nc2ccccc2S(=O)(=O)C(C)C)c2cn[nH]c2n1 ... 27

====

- test_system: PTK2B (human)
- method_description: KINOMEscan competition binding
- condition_notes: compound 10.0 µM
kinase still bound, per cent of control: recorded values
value_type: kinase still bound, per cent of control (%)

1) CCN1CCN(Cc2ccc(NC(=O)c3ccc(C)c(/C=C/c4cnc(Nc5cc(N6CCNCC6)nc(C)n5)cn4)c3)cc2C(F)(F)F)CC1 ... 36
2) CCOc1cc(N2CCC(N3CCCCC3)CC2)ccc1Nc1nc(Nc2ccccc2S(=O)(=O)C(C)C)c2cn[nH]c2n1 ... 5
3) COc1cc(N2CCC(N3CCN(C)CC3)CC2)ccc1Nc1ncc(Cl)c(Nc2ccccc2S(=O)(=O)C(C)C)n1 ... 0
4) CCN1CCN(Cc2ccc(NC(=O)c3ccc(C)c(Oc4ccnc5[nH]ccc45)c3)cc2C(F)(F)F)CC1 ... 2.1

====

kinase still bound, per cent of control: recorded values
- test_system: CDK18 (human) (UniProt Q07002)
- method_description: KINOMEscan competition binding
- condition_notes: compound 10.0 µM
value_type: kinase still bound, per cent of control (%)

1) COc1cc(N2CCC(N3CCN(C)CC3)CC2)ccc1Nc1ncc(Cl)c(Nc2ccccc2S(=O)(=O)C(C)C)n1 ... 40
2) CCOc1cc(N2CCC(N3CCCCC3)CC2)ccc1Nc1nc(Nc2ccccc2S(=O)(=O)C(C)C)c2cn[nH]c2n1 ... 100
3) CCN1CCN(Cc2ccc(NC(=O)c3ccc(C)c(/C=C/c4cnc(Nc5cc(N6CCNCC6)nc(C)n5)cn4)c3)cc2C(F)(F)F)CC1 ... 81
4) CCN1CCN(Cc2ccc(NC(=O)c3ccc(C)c(Oc4ccnc5[nH]ccc45)c3)cc2C(F)(F)F)CC1 ... 1.8
